Tested on: Human umbilical vein endothelial cells (HUVEC)
Assay: Inhibition of growth factor-mediated cell proliferation (hFGF-2)
Format: cell-based
Condition info: Homo sapiens, HUVEC, 72 h, 72 h exposure, hFGF-2 stimulated; from averaged pIC50 values
Protocol: Human umbilical vein endothelial cells (HUVEC) were obtained from Cellsystems (FC-0003) and grown in Vasculife VEGF complete medium (Cellsystems, LL-1020) containing 2% fetal bovine serum (FBS) at 37° C. and 5% CO2. The cells were used for proliferation assays up to passage 7. […]
// values below are reported pIC50
Note on pIC50: it is the negative log10 of concentration, concentration in mol/L.

# annotated cases, reported pIC50 shown
Compound	pIC50
COc1cc(C)cc2cc(-c3cc(CN4CCNC(C(=O)N(C)C)C4)n4ncnc(N)c34)sc12 (stereo not drawn) [Example 17]	6.82
COc1cc(C)cc2cc(-c3cc(CN4CCN(C(=O)CO)CC4)n4ncnc(N)c34)sc12 [Example 96]	7.14

Would you kindly look at the next entry?
Exercise: pIC50 lookup needed for COc1cc(C)cc2cc(-c3cc(CN4CC[C@H](N(C)C)C4)n4ncnc(N)c34)sc12 [Example 15] , thanks.
Solution: 6.74
